Data origin, for the record: patent US20090123563A1

List of melting point values.

- chemical.string: "O=C1NC(=O)/C(=C/c2ccc3cc(O)ccc3c2)S1"
  melting point: "310 to 314 °C"
- chemical.string: "COc1cc(OCc2c(F)cccc2[N+](=O)[O-])cc(OC)c1/C=C1\\SC(=O)NC1=O"
  melting point: "255 to 256 °C"
- chemical.string: "COc1cc(/C=C2\\SC(=O)NC2=O)cc(I)c1O"
  melting point: "256 °C"
- chemical.string: "O=C1NC(=O)/C(=C/c2cc3ccccc3[nH]c2=O)S1"
  melting point: "338 to 347 °C"
- chemical.string: "CC(/C=C1\\SC(=O)NC1=O)=C\\c1ccccc1"
  melting point: "203 to 210 °C"
- chemical.string: "O=C1NC(=O)/C(=C/c2cc3ccccc3o2)S1"
  melting point: "265 to 266 °C"
